Recorded inhibition by entry
- Protocol: drug combination toxicity in non-malignant astrocytes – cell-based, BGB or cisplatin IC20 combos, cytotoxicity control for chromothriptic childhood tumor combination screen (AID 1671460);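 note: cells exposed to compounds for 96 hours before viability readout; 0% = vehicle and 100% = killing control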
- Measurement context: Human astrocytes, viability inhibition, drug combinations; measured here: combo with cisplatin IC20; at 0.5 µM; stronger effect = higher value
Entry rule: numbers only, all in %.

1. O=C(O)[C@H](Cc1c[nH]c2ccccc12)N1C(=O)c2ccccc2C1=O ... 4.01

The value of inhibition measured for the compound "Nc1ccccc1NC(=O)c1ccc(CNc2nccc(-c3cccnc3)n2)cc1" turned out to be 17.1

Please fill in: inhibition reported for "Nc1nc2n[nH]nc2c(=O)[nH]1" = 6.71

# inhibition of "CN(C)Cc1c(C(=O)NCCOc2ccc(C(=O)NO)cc2)oc2ccccc12" = 44

// "O=c1[nH]cnc2ccccc12" : inhibition value = 21.8

Input "CC(=O)Nc1ccc(C(=O)Nc2ccccc2N)cc1" . Output inhibition: 26.2

inhibition measured on "NC(=O)c1nc(F)c[nH]c1=O" = -5.76

These data points were gathered from PubChem BioAssay.
